FYI, the data here is from patent US9302988B2.

molecular target: Human CaV2.2 channels (Homo sapiens); construct: expressed in transfected cells; test: Fluorescent assay for CaV2.2 channels using potassium depolarization to induce channel opening (FLIPR, Fluo-4); format: cell-based; settings: 3 μM test compound, 30 mM KCl, HEK293 cells stably expressing human CaV2.2; read-out: %-Inhib (CaV2.2) @3 μM @30 mM KCl
Sequence (Q00975 whole entry): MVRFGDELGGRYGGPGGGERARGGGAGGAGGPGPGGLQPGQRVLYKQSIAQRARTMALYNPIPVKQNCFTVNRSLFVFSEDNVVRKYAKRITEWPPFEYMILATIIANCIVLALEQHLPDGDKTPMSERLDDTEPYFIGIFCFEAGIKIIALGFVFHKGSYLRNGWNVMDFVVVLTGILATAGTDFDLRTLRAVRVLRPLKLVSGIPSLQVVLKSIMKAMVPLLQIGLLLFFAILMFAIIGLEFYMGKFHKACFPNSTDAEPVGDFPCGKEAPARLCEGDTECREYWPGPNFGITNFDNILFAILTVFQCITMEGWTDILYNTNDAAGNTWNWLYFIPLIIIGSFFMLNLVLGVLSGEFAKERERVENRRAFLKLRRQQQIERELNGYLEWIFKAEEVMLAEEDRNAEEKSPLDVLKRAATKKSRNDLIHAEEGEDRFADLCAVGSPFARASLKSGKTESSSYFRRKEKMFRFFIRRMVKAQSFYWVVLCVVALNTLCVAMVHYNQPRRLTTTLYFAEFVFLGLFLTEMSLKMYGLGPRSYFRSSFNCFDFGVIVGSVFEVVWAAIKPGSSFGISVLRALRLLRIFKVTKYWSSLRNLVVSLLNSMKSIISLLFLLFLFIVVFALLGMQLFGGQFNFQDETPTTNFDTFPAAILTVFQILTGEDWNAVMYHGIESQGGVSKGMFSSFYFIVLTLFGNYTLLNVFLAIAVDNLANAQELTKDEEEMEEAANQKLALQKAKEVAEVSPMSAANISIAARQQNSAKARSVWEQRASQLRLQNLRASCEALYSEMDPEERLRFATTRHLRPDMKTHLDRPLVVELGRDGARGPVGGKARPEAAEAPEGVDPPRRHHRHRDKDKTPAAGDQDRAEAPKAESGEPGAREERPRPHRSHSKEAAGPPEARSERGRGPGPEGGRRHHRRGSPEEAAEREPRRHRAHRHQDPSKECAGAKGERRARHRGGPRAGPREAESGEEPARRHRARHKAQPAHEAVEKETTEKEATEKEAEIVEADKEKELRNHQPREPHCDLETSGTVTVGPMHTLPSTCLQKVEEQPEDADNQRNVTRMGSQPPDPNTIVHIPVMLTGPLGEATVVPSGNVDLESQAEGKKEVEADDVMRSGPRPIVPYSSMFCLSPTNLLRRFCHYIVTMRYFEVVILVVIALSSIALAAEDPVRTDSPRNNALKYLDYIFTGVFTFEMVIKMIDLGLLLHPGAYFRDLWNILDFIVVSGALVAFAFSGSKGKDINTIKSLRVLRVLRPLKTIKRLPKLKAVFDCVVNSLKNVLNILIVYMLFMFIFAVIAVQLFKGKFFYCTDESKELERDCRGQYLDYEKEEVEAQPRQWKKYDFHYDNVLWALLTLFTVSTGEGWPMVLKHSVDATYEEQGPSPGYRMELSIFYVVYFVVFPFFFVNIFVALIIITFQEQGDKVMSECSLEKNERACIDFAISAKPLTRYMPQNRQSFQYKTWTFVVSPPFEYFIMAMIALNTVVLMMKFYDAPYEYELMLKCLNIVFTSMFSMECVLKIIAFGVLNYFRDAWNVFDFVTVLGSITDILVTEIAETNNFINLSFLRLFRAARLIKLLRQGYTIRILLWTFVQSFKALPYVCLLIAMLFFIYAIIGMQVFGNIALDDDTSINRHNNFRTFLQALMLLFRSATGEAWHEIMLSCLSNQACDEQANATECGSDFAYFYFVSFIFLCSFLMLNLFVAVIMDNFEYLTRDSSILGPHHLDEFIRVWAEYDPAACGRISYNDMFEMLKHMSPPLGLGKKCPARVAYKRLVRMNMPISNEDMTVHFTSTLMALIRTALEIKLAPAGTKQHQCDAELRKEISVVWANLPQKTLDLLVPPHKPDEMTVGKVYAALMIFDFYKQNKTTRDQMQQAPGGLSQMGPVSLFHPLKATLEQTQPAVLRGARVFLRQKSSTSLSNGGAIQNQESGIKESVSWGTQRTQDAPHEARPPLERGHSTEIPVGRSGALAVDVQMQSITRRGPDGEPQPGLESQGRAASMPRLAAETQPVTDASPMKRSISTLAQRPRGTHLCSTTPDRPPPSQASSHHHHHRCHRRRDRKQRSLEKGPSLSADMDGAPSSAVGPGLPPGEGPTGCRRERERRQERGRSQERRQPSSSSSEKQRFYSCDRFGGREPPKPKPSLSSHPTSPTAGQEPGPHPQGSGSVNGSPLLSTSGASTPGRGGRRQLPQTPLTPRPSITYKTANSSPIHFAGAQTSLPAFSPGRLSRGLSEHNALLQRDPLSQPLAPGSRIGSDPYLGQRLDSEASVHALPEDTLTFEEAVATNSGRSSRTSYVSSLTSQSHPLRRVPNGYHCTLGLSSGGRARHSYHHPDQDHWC
Sequence (P54289 25-1103, further chain): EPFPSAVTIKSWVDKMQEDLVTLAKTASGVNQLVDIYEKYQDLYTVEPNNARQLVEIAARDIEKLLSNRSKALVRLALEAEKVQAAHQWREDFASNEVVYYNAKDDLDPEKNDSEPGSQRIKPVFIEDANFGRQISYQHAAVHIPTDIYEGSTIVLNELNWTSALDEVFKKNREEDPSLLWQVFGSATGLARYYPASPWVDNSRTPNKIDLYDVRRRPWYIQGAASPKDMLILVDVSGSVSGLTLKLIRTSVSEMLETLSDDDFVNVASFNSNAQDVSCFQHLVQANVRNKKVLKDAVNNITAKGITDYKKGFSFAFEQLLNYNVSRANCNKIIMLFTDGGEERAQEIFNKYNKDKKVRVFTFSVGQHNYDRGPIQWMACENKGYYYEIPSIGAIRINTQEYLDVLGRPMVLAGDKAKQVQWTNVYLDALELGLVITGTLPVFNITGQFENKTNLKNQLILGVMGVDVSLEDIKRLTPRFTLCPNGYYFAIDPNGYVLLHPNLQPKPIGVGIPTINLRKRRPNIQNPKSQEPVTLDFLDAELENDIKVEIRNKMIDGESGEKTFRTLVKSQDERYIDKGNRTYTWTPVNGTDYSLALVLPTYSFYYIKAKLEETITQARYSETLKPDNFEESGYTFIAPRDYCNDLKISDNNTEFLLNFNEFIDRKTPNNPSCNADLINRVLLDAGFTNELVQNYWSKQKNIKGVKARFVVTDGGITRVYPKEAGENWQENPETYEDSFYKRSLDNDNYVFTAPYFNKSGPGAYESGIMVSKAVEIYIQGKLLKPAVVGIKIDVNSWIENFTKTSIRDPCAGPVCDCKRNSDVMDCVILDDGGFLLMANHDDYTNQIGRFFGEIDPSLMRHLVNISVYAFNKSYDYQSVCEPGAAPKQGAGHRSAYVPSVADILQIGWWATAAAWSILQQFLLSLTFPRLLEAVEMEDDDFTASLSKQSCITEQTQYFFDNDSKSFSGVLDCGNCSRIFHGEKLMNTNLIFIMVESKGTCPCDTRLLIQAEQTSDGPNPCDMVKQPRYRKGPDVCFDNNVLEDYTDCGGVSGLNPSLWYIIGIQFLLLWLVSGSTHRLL
Sequence (P54284 whole entry, further chain): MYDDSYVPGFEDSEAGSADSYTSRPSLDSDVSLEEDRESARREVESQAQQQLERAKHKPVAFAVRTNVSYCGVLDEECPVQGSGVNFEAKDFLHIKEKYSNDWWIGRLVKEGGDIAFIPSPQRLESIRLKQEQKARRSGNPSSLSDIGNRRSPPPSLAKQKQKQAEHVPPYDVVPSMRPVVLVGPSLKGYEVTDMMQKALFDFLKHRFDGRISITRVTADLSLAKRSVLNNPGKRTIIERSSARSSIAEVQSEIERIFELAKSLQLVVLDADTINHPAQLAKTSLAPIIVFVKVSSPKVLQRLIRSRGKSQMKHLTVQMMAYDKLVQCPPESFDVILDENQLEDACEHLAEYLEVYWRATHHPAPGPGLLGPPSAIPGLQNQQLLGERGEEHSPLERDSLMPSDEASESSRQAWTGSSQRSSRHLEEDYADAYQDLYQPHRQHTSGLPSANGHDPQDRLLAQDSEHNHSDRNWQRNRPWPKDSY
Listing of entries alongside the reported inhibition at 3 µM.

Some molecules with known inhibition at 3 µM results, for comparison:
>>> df
                                   molecule                   experimental_target  reported_result
0  Cc1c(-c2ccc(Cl)cc2)c(C(=O)N2CC(F)(F)C2)n(-c2cccc(Cl)c2)c1C(F)(F)F [SC-33]  Human CaV2.2 channels (Homo sapiens)        75 to 95%
1  Cc1c(-c2ccc(Cl)cc2)c(C(=O)N(C)C2(C(N)=O)CC2)n(Cc2ccccc2)c1C(F)(F)F [SC-49]  Human CaV2.2 channels (Homo sapiens)            > 95%
2  CN(Cc1cnc(N(C)C)nc1)C(=O)c1c(-c2ccc(Cl)cc2)cc(C(F)(F)F)n1Cc1ccccc1 [SC-216]  Human CaV2.2 channels (Homo sapiens)        75 to 95%

The observed inhibition at 3 µM for Cc1c(-c2ccc(C(F)(F)F)cc2)c(C(=O)N2CC(O)C2)n(Cc2ccccc2)c1C(F)(F)F [SC-232] when tested with Human CaV2.2 channels (Homo sapiens) stands at 40 to 75%

Noted inhibition at 3 µM for Cc1c(-c2ccc(OC(F)(F)F)cc2F)c(C(=O)N2CCOCC2)n(Cc2ccccc2)c1C(F)(F)F [SC-262] , tested on Human CaV2.2 channels (Homo sapiens): 75 to 95%

Lab entry: Human CaV2.2 channels (Homo sapiens) assay, molecule Cc1c(-c2ccc(F)cc2)c(C(=O)N(C)CC2CCOC2)n(Cc2ccccc2)c1C(F)(F)F (centres unmarked) [SC-226] , inhibition at 3 µM = > 95%

Record Cc1cc(CN(C)C(=O)c2c(-c3ccc(Cl)cc3)c(C)c(C(F)(F)F)n2Cc2ccccc2)on1 [SC-140] / Human CaV2.2 channels (Homo sapiens), inhibition at 3 µM recorded as > 95%

Result for Cc1c(-c2ccc(Cl)cc2)c(C(=O)N(C)C2CCS(=O)(=O)C2)n(Cc2ccccc2)c1C(F)(F)F (centres unmarked) [SC-63] , tested on Human CaV2.2 channels (Homo sapiens), inhibition at 3 µM: > 95%
